experiment: Particle size parameter test (BT-2900 image particle size analysis system); assay type: physicochemical; settings: quantity distribution, image particle size analysis
Decision: Average particle size compared against 100 μm; not below it gives 1 (yes), below it gives 0 (no).

Is Average particle size for O=C[C@H](O)[C@@H](O)[C@@H](O)CO [Example 3, L-arabinose] at or above 100 μm?
1 (yes)

Could you please find out whether O=C[C@H](O)[C@@H](O)[C@@H](O)CO [Example 10 Sample of batch 1^b, L-arabinose] has Average particle size that meets 100 μm or exceeds it?
1 (yes)

Kindly determine if Average particle size recorded for O=C[C@H](O)[C@@H](O)[C@@H](O)CO [Example 10 Sample of batch 2^b, L-arabinose] is above or exactly 100 μm.
1 (yes)

Is reported Average particle size greater than or equal to 100 μm here: O[C@@H]1[C@@H](O)[C@@H](O)CO[C@H]1O [Commercial product (Y1)]
0 (no)

Determine whether measured Average particle size meets or exceeds 100 μm for O=C[C@H](O)[C@@H](O)[C@@H](O)CO [Example 12, L-arabinose]
1 (yes)

Average particle size >= 100 μm for O=C[C@H](O)[C@@H](O)[C@@H](O)CO [Example 11, L-arabinose] ?
1 (yes)

Is reported Average particle size greater than or equal to 100 μm here: O[C@@H]1[C@@H](O)[C@@H](O)CO[C@H]1O [Commercial product (T1)]
0 (no)

hey, is Average particle size for this one >= 100 μm? O[C@@H]1[C@@H](O)[C@@H](O)OC[C@@H]1O [Example 1, β-L-(+)-arabinose]
1 (yes)

For this molecule, is measured Average particle size 100 μm or higher? O=C[C@H](O)[C@@H](O)[C@@H](O)CO [Example 2, L-arabinose]
1 (yes)

====

assay: Flowability test (particle and powder characteristic analyzer, FT-102D); assay type: physicochemical
Lab note: anything with Compressibility at or over 20 counts as TRUE; the rest go in FALSE.

Hello, I need to know if O=C[C@H](O)[C@@H](O)[C@@H](O)CO [Example 10 batch 1, L-arabinose] has measured Compressibility not below 20. Thanks!
FALSE

Reported Compressibility at or above 20? O=C[C@H](O)[C@@H](O)[C@@H](O)CO [Example 2, L-arabinose]
TRUE

Check if Compressibility >= 20 (inclusive). Item: O=C[C@H](O)[C@@H](O)[C@@H](O)CO [Example 11, L-arabinose]
TRUE

Say whether O=C[C@H](O)[C@@H](O)[C@@H](O)CO [Example 3, L-arabinose] shows Compressibility of 20 or more.
TRUE

// inclusive: Compressibility at least 20? input: O=C[C@H](O)[C@@H](O)[C@@H](O)CO [Example 12, L-arabinose]
TRUE

Determine whether measured Compressibility meets or exceeds 20 for O=C[C@H](O)[C@@H](O)[C@@H](O)CO [Example 10 batch 2, L-arabinose]
FALSE

====

test: Particle size parameter test (BT-2900 image particle size analysis system); assay type: physicochemical; details: quantity distribution, image particle size analysis
Binned D90; ranges: lower: < 200 μm; middle: ≥ 200 μm and < 300 μm; upper: ≥ 300 μm

Would you mind sorting O=C[C@H](O)[C@@H](O)[C@@H](O)CO [Example 10 Sample of batch 2^b, L-arabinose] into the appropriate category?
upper

State the class of the compound shown: O=C[C@H](O)[C@@H](O)[C@@H](O)CO [Example 12, L-arabinose]
upper

The entry to classify is O=C[C@H](O)[C@@H](O)[C@@H](O)CO [Example 11, L-arabinose] ; which class holds it?
upper

Would you mind sorting O[C@@H]1[C@@H](O)[C@@H](O)OC[C@@H]1O [Example 1, β-L-(+)-arabinose] into the appropriate category?
middle

Assign a bin to O=C[C@H](O)[C@@H](O)[C@@H](O)CO [Example 3, L-arabinose]
middle

Lab log: O[C@@H]1[C@@H](O)[C@@H](O)CO[C@H]1O [Commercial product (T1)] — assign D90 category
lower

Each compound maps to one class by D90. Which class for O[C@@H]1[C@@H](O)[C@@H](O)CO[C@H]1O [Commercial product (Y1)] ?
lower

====

experiment: Flowability test (particle and powder characteristic analyzer, FT-102D); type: physicochemical
property-measured: Bulk density (g/mL)
Give the number; g/mL is assumed, so skip it.

Bulk density lookup needed for O[C@@H]1[C@@H](O)[C@@H](O)OC[C@@H]1O [Example 1, β-L-(+)-arabinose] , thanks.
0.7

Using the record for O[C@@H]1[C@@H](O)[C@@H](O)CO[C@H]1O [Commercial product (Y1)] , report its Bulk density.
0.5

Endpoint output: Bulk density of O[C@@H]1[C@@H](O)[C@@H](O)CO[C@H]1O [Commercial product (T1)] . Value?
0.55

====

assay: Particle size parameter test (BT-2900 image particle size analysis system); assay type: physicochemical; conditions: quantity distribution, image particle size analysis
property-measured: D10 (μm)
Report only the number, with the unit μm understood.

Endpoint output: D10 of O=C[C@H](O)[C@@H](O)[C@@H](O)CO [Example 10 Sample of batch 1^b, L-arabinose] . Value?
78

I have this molecule here, O=C[C@H](O)[C@@H](O)[C@@H](O)CO [Example 10 Sample of batch 2^b, L-arabinose] , and I need its recorded D10.
79

// D10 lookup, key: O=C[C@H](O)[C@@H](O)[C@@H](O)CO [Example 2, L-arabinose]
82

====

assay: Flowability test (particle and powder characteristic analyzer, FT-102D); format: physicochemical
property-measured: Tap density
# do not omit the unit; it follows the number

Record request: Tap density value, item O[C@@H]1[C@@H](O)[C@@H](O)OC[C@@H]1O [Example 1, β-L-(+)-arabinose]
0.85 g/mL

Given the entry O[C@@H]1[C@@H](O)[C@@H](O)CO[C@H]1O [Commercial product (Y1)] , report its measured Tap density.
0.85 g/mL

# get_value(readout='Tap density', item= O[C@@H]1[C@@H](O)[C@@H](O)CO[C@H]1O [Commercial product (T1)] )
0.93 g/mL

====

Give measured D50 for each item. Keep answers brief.
experiment: Particle size parameter test (BT-2900 image particle size analysis system); format: physicochemical; conditions: quantity distribution, image particle size analysis
Your answer should be a plain number; it is taken to be in μm.

Which D50 reading was recorded for the molecule O=C[C@H](O)[C@@H](O)[C@@H](O)CO [Example 11, L-arabinose] ?
288.1

Which D50 value is on record for O=C[C@H](O)[C@@H](O)[C@@H](O)CO [Example 10 Sample of batch 1^b, L-arabinose] ?
174

Need D50, item O=C[C@H](O)[C@@H](O)[C@@H](O)CO [Example 3, L-arabinose]
109

Look up D50 for this molecule: O[C@@H]1[C@@H](O)[C@@H](O)OC[C@@H]1O [Example 1, β-L-(+)-arabinose]
138

What measured D50 goes with O=C[C@H](O)[C@@H](O)[C@@H](O)CO [Example 10 Sample of batch 2^b, L-arabinose] ?
168

====

assay: Flowability test (particle and powder characteristic analyzer, FT-102D); type: physicochemical
property-measured: Compressibility (%)
Respond numerically; units are % and should not be typed.

I have this molecule here, O[C@@H]1[C@@H](O)[C@@H](O)CO[C@H]1O [Commercial product (Y1)] , and I need its recorded Compressibility.
41.4

For O[C@@H]1[C@@H](O)[C@@H](O)OC[C@@H]1O [Example 1, β-L-(+)-arabinose] , what is its reported Compressibility?
17.1

Give its Compressibility value. Item: O[C@@H]1[C@@H](O)[C@@H](O)CO[C@H]1O [Commercial product (T1)]
40.2
